Just for reference, ChEMBL document CHEMBL1961873 is where these values come from.

- testedTarget: Angiopoietin-1 receptor (Homo sapiens) (UniProt Q02763);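 further: reported value is the mean TIE2 inhibition from the GSK PKIS dataset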
- Sequence (Q02763 whole entry): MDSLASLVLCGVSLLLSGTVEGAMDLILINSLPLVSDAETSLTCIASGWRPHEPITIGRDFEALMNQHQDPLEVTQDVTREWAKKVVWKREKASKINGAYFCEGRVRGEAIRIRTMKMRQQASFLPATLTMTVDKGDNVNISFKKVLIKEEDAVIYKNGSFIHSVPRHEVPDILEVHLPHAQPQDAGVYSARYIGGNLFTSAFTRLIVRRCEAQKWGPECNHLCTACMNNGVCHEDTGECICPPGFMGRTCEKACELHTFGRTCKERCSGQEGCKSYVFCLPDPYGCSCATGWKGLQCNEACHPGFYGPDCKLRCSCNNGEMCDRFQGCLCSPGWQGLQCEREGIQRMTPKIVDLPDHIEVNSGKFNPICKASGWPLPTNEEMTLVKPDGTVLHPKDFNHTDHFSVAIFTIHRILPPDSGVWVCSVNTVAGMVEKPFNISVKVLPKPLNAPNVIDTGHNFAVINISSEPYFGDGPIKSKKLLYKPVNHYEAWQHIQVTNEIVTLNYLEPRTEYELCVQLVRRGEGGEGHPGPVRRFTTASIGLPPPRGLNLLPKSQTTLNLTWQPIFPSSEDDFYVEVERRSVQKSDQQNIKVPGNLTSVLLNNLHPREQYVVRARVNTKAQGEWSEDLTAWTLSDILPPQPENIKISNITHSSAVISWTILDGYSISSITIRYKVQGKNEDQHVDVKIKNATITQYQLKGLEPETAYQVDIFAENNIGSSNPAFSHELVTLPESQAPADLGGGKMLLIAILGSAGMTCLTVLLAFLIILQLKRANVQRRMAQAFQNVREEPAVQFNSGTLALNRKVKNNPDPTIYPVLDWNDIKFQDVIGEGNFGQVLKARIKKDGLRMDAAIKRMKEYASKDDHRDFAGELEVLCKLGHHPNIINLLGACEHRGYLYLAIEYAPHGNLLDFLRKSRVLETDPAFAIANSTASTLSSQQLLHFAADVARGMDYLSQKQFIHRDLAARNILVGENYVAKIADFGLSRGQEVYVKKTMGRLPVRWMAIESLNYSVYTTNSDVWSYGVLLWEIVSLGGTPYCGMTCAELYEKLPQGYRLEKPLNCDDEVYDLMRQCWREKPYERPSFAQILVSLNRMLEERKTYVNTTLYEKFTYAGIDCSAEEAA
- conditionsUsed: at 1 µM
Classification field: 1 = inhibition at or over 8%; 0 = inhibition under 8%.

Worked cases, answers included:
CCS(=O)(=O)c1ccc(OC)c(Nc2ncc(-c3cccc(C(C)=O)c3)o2)c1 : 1
N#Cc1ccc2c(-c3ccnc(NC4CC4)n3)c(-c3ccc(F)cc3)nn2c1 : 0
Cc1c2ccc(N(C)c3ccnc(Nc4cccc(S(N)(=O)=O)c4)n3)cc2nn1C : 1
COc1cccc(-n2ncc3c(N/N=C/c4ccc(C(=O)NCCN(C)C)cc4)ncnc32)c1 : 1
NS(=O)(=O)c1ccc(N/N=C2\C(=O)Nc3ccc(C(=O)NCc4ccncc4)cc32)cc1 : 0
O=C1Nc2ccccc2/C1=C1\CCc2cc(O)ccc21 : 0
CC(C)c1ccc(-c2cc(-c3c[nH]nc3-c3ccccn3)ccn2)cc1 : 0
NS(=O)(=O)c1cccc(N/C=C2\C(=O)Nc3ccccc32)c1 : 1
CCS(=O)(=O)c1ccc(OC)c(Nc2ncc(-c3cccc(F)c3)o2)c1 : 1
Fc1cccc(COc2ccc(Nc3ncncc3C#Cc3ccccc3)cc2Cl)c1 : 0

Please indicate if the recorded inhibition for CCn1c(-c2nonc2N)nc2cncc(C(=O)NCCNC)c21 meets or exceeds 8%.
0

Please indicate if the recorded inhibition for Cc1nnc(-c2cccc(-c3ccc(C(=O)NCC4CC4)cc3)c2)o1 meets or exceeds 8%.
0

###

- testedTarget: Ephrin type-A receptor 4 (Homo sapiens) (UniProt P54764)
- Sequence (P54764 whole entry): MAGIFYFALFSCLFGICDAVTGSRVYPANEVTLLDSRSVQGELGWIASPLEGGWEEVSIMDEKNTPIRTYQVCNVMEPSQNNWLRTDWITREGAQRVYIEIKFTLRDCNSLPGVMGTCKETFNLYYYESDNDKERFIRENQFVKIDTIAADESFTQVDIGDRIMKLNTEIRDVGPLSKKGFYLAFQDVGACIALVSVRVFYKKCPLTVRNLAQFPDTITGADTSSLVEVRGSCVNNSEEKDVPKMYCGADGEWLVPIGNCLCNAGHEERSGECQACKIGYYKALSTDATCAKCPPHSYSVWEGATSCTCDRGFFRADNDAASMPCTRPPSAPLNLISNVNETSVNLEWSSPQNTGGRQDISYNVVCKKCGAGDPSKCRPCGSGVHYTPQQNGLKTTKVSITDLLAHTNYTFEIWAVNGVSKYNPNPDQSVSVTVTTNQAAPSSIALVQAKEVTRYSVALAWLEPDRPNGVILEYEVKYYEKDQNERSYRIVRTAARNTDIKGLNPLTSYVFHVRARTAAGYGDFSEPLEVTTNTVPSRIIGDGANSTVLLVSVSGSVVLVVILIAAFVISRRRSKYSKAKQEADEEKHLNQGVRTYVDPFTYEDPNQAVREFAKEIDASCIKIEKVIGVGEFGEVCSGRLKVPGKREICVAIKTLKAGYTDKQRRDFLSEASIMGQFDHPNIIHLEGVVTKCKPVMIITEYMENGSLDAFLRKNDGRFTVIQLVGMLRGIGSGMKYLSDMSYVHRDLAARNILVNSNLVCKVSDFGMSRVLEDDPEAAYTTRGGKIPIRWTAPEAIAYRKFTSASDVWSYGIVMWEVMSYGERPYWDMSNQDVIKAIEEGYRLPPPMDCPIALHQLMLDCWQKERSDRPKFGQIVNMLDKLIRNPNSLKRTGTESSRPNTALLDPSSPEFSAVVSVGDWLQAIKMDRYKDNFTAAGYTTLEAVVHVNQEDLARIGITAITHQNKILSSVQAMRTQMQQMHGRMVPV
- conditionsUsed: at 1 µM
- Description: GSK_PKIS: EPHA4 mean inhibition at 1 uM [Nanosyn]
Classification field: yes (1) = inhibition at or over 70%; no (0) = inhibition under 70%.

Worked cases, answers included:
Cc1cc(O)cc(C)c1/C=C/c1cncc(C(=O)OC(C)(C)C)c1 : yes (1)
O=C1Nc2ccccc2/C1=C1\CCc2cc(O)ccc21 : no (0)
CCOc1ccc2c(-c3ccnc(Nc4cc(OC)cc(C(F)(F)F)c4)n3)cnn2n1 : no (0)

Okay, next one:
Please indicate if the recorded inhibition for CS(=O)(=O)CCNCc1ccoc1-c1ccc2ncnc(Nc3ccc(OCc4ccccc4)cc3)c2c1 meets or exceeds 70%.
no (0)

###

- testedTarget: Vascular endothelial growth factor receptor 1 (Homo sapiens) (UniProt P17948);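 further: values are mean percent inhibition of FLT1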
- Sequence (P17948 whole entry): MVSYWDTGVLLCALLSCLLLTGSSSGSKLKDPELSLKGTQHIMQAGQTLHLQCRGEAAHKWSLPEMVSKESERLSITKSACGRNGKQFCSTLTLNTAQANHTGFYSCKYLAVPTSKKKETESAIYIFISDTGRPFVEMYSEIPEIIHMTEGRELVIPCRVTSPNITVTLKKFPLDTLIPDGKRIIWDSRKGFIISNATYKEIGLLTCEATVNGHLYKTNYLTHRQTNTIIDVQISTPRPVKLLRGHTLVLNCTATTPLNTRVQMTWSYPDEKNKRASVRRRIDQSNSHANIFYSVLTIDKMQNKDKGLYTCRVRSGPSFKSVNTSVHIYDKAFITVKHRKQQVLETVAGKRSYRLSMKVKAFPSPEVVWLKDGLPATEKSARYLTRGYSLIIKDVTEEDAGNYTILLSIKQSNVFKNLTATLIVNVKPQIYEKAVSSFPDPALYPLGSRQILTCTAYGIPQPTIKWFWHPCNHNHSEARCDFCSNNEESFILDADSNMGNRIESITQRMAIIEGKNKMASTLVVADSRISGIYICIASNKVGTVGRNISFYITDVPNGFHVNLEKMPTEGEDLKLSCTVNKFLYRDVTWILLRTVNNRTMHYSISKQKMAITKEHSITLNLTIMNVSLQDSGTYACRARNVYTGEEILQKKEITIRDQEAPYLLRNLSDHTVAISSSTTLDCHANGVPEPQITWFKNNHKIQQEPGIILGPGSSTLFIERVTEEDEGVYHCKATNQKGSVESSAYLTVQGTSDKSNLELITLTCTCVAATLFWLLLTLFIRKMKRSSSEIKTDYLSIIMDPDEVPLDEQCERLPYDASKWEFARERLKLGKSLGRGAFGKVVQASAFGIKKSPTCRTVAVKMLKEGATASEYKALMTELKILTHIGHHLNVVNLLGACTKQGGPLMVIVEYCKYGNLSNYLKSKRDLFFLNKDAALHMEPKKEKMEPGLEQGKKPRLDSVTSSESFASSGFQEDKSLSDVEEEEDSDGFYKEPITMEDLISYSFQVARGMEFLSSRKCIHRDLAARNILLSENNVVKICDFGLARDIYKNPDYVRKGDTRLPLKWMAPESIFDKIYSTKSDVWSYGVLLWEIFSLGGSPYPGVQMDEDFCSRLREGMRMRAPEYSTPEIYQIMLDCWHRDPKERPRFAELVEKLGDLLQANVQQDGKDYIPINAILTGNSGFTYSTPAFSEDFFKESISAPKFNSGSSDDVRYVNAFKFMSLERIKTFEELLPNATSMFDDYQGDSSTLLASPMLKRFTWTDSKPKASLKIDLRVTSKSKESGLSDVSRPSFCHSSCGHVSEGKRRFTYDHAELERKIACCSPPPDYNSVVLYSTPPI
- conditionsUsed: at 0.1 µM
Reported inhibition values for the following molecules.
I only need the number, in %, no unit after it.

A selection of reference data follows.
COc1ccc2ncn(-c3cc(O[C@H](C)c4ccccc4C(F)(F)F)c(C(N)=O)s3)c2c1 : -2.14
CNC(=O)c1ncccc1Nc1nc(Nc2cc3c(cc2OC)CCCN3C(=O)CN(C)C)nc2[nH]ccc12 : 0.02
COc1ccc(-c2nn3ncccc3c2-c2ccnc(Nc3ccc(F)c(F)c3)n2)cc1 : 2.48

Next item in the queue.
Please report the recorded inhibition for O=C(O[C@H]1CN[C@H](C#Cc2cc3ncnc(Nc4ccc(OCc5cccc(F)c5)c(Cl)c4)c3s2)C1)N1CCOCC1 .
1.9

###

- testedTarget: Epidermal growth factor receptor (Homo sapiens);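 further: values are mean inhibition figures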
- conditionsUsed: at 1 µM
parameterMeasured: inhibition (%)
I only need the number, in %, no unit after it.

O=C(O[C@H]1CN[C@H](C#Cc2cc3ncnc(Nc4ccc5c(cnn5Cc5ccccc5)c4)c3s2)C1)N1CCOCC1 : 83.3
COc1cc2c(cc1Nc1nc(Nc3cccc(F)c3C(N)=O)c3cc[nH]c3n1)N(C(=O)CN1CCN(C(C)C)CC1)CC2 : 17.1

What measured inhibition is associated with COc1cccc(Nc2nccc(-c3cnn4ncccc34)n2)c1 on Epidermal growth factor receptor (Homo sapiens)?
5.8

What measured inhibition is associated with NS(=O)(=O)c1ccc(N/N=C2\C(=O)Nc3ccc(C(=O)NCc4ccncc4)cc32)cc1 on Epidermal growth factor receptor (Homo sapiens)?
5.5

What measured inhibition is associated with OCCCNc1nccc(-c2c(-c3ccc(F)cc3)nn3cc(C(F)(F)F)ccc23)n1 on Epidermal growth factor receptor (Homo sapiens)?
9.16

What measured inhibition is associated with CCS(=O)(=O)c1ccc(OC)c(Nc2ncc(-c3cccc(C(C)=O)c3)o2)c1 on Epidermal growth factor receptor (Homo sapiens)?
9.23

What measured inhibition is associated with CNC(=O)c1sc(-n2cnc3cc(OC)c(OC)cc32)cc1OCc1ccccc1C(F)(F)F on Epidermal growth factor receptor (Homo sapiens)?
2.09

What measured inhibition is associated with O=C(O[C@H]1CN[C@H](C#Cc2cc3ncnc(Nc4ccc(OCc5cccc(F)c5)c(Cl)c4)c3s2)C1)N1CCOCC1 on Epidermal growth factor receptor (Homo sapiens)?
77.1
